Just for reference, paper PMC8699473 is where these values come from.

Assay: Short-term stability in spiked pooled human plasma (bench-top, 4 °C, 56 °C)
Conditions: validation standard 2xLLOV
Assignment: determine reported Short-time stability (24h, RT, without daylight) Accuracy [%] for the given compounds.
Give bare numbers, in %.

Completed entries (count: 2):
Cc1cn(-c2cc(NC(=O)c3ccc(C)c(Nc4nccc(-c5cccnc5)n4)c3)cc(C(F)(F)F)c2)cn1
108.6
NC(=O)c1cccc2cn(-c3ccc([C@@H]4CCCNC4)cc3)nc12
93.8

*Q* Fill in Short-time stability (24h, RT, without daylight) Accuracy [%] for record C[C@@H](Oc1cc(-c2cnn(C3CCNCC3)c2)cnc1N)c1c(Cl)ccc(F)c1Cl
*A* 92.4
